assay: soluble on expression in E. coli; label from the status in PepcDB or PDB records
Experimental readout: soluble on expression in E. coli

MKTKSPALSGKLTDTELRTLRIFMAVVHYSGFTPAALELNVSRSAVSIAMADLEKRLSLRLCERGRAGFSLTTEGREVYRSTRQLFSALDQFRIQINAIHFNLKGELNIGITDNLVTMPQMRITSALRELNRLGPDVQINIQMIPPNEIISGVLDGQLHTGVIPVQKHYEGLEYLLLYEERSSLYCGQEHELFCRHDSELSPSMLKQYNGVLPAYDQTSEIKALHHELQLSASATDREGVAFLILTGRYIGYLPDHYAHRWVKEGVMRAILPANMSYLTPFATITKKGAPSNLVLENYLEQLKLASTTAGG = not soluble
MYKQIILACDGSEHALRAAEHATYIAKCSEETNVEVVYVVDNRTAKSDIIQGQTDLETISASRKDKLKEIEGLLKKENISYTITILHGDPGDTIVQYVNTGDIDLVIAGSRGLNTLQEMVLGSVSHKIAKRVKCPVMIVK = not soluble
MNPKIEDSEFNWENEDIVMKLVDEKGKAHPVSKAELLESLESRKLGLETRVLDKYHENHVAFENVLVLDAPQDLETIVNLLLPWYMGKTLTLFEGPLNYPDSSRLAQIISKHNVDIVLGSDYNYSIPNPEYLKLFPVPSLKLVDLPNFESISNYLTISR = not soluble

* * *

experiment: soluble on expression in E. coli; label from the status in PepcDB or PDB records
Experimental readout: soluble on expression in E. coli

MSLNNRIIYVVSDSVGETAELVVKAALSQFNGSADDTHVRRIPYVEDIGTINEVISLAKADGGIICFTLVVPEIREYLIAEAEKANVLYYDIIGPLIDKMETAYGLTAKYEPGRVRQLDEDYFKKVEAIEFAVKYDDGRDPRGILKADIVLIGVSRTSKTPLSQYLAHKRLKVANVPIVPEVDPPEELFNVDPKKCIGLKISPDKLNHIRKERLKSLGLNDKAIYANINRIKEELEYFEKIVDRIGCQVVDVSNKAVEETANIIHHLKTKNIEGHHHHHH = soluble
MKIKSIRKAVLLLALLTSTSFAAGKNVNVEFRKGHSSAQYSGEIKGYDYDTYTFYAKKGQKVHVSISNEGADTYLFGPGIDDSVDLSRYSPELDSHGQYSLPASGKYELRVLQTRNDARKNKTKKYNVDIQIK = soluble
VVPGPVHTSPREVAGPVDVLILAVKATQNDAARPWLTRLCDERTVVAVLQNGVEQVEQVQPHCPSSAVVPAIVWCSAETQPQGWVRLRGEAALVVPTGPAAEQFAGLLRGAGATVDCDPDFTTAAWRKLLVNALAGFMVLSGRRSAMFRRDDVAALSRRYVAECLAVARAEGARLDDDVVDEVVRLVRSAPQDMGTSMLADRAAHRPLEWDLRNGVIVRKARAHGLATPISDVLVPLLAAASDGPG = not soluble
MKRSAFFISDGTGITAETLGQSLLAQFENITFNKFTRPYIDSVEKARAMVQQINNAADKDDVRPIIFDTIVNQDIREILATSNGFMIDIFSTFLAPLEQELSSHSSYSVGKSHSIGHNSNYMERIEAVNFALDNDDGARTHYYDKADIILVGVSRCGKTPTCLYMAMQFGIRAANYPLTEDDMERLQLPPALKQHREKLFGLTIDPDRLTAIRHERKPNSRYSSYAQCEFEVREVESLFRRENIPNINSTHFSVEEISAKVLVEKGVERRFKLEHHHHHH = not soluble
MKFGKTIAVVLASSVLLAGCTTDKKEIKAYLKQVDKIKDDEEPIKTVGKKIAELDEKKKKLTEDVNSKDTAVRGKAVKDLIKNADDRLKEFEKEEDAIKKSEQDFKKAKSHVDNIDNDVKRKEVKQLDDVLKEKYKLHSDYAKAYKKAVNSEKTLFKYLNQNDATQQGVNEKSKAIEQNYKKLKEVSDKYTKVLNKVGKEKQDVDQFK = soluble
MSLSLMLTVETRQAVNPDYAKTLDTEGLRRHFLANDMFRSGEIRLIYTHYDRFVMGGAVPNGAPLTLDKVEETKTPSFLDRREMGIVNIGETGTVSAGDETYTLNRGDVLYLGAGSRAVTFDGAGRFYITSCPAHRSLPAKLVSLADSKEVKLGATETSNKRTINQFIHPLVMESCQLVLGYTMLEDGSVWNTIPSHIHDRRMEAYLYFGMDEKSRVLHLMGEPQETRHLFISNEEGAISPPWSIHSGAGIGSYTFIWAMAGDNVDYTDMDFIQPGDLKEGHHHHHH = soluble
MAHHHHHHMNLSDSNKDLNDSKSDKSTSWVKWFNSRAFSNFLVEVDNEYITDSFNLYGLKSEMPNFNHLLSIVAGDAPEEDDAKNAFGKDAVSLYSLIHARFITTPKGLSLMKDKYIKGDFGSCPRVSCSQHNVLPIGLFDQIKIAKVHVYCPLCQEIYKIHEEDKVYLDGSFFGTSFPHILLQTYPYYATLKTPSYCTSKIFGFSVYHNFTRTEYKIAKGEFGKLSRENFLKKNPKYLKKLKKEELQIKDT = not soluble
MNMQKLRIELGEETNDELYDLLLLADPSKDIVDEYLERGECYTAWAGDELAGVYVLLKTRPQTVEIVNIAVKESLQKKGFGKQLVLDAIEKAKKLGADTIEIGTGNSSIHQLSLYQKCGFRIQAIDHDFFLRHYDEDIFENGIQCRDMVRLYLDLLEHHHHHH = soluble
MGSDKIHHHHHHMLPTLDGLPFHIAKAQGIYDSLGLDLTILSFNSAYDRDAAFQFKSMDGMITDYPSAVTLQAIHHTDLGIILKHDGYFCFIVSKESGINQLQELKEKNIAVSHNTIIEYATGQLLNKAGISQAEVNKPEIAQLPLRLQMLQYDQIDASFLPDPAASIAMNARHRSLISTQELGIDFTVTAFSREAINEKRREIELLITGYNLGIDYIKMHPQKEWKQVLIEIGVPENLTGLIALPVYRKAERPSADALDKAVTWLKTNNRIPQTYSGYKSLIDTTFIKTNSTTIK = not soluble
MGSDKIHHHHHHEDDCATNPEPAGDVTEIKLSAGIQGVATRTPVSTNDNITAPFVASATTGDYTTNAWSSTVTFVASPTPTAALSFSPARYYPVDNSPIYIRGYYPAGTLSGKTVTLAGDGTEDVMLTAQASGTKATAGALSFVFNHLLTQLQFKLVAGAGYPASGVNVTSLVIKQQKTPATLDLNTSSLTYTTKDLTLSGTFPILTAGSTINNYPMVKSGEALTVAVTTSDGVTYPESTISVTTEVGKSHLITLTFTPKEITSSISVTAWQTGGTGSSTLQ = not soluble
MSLGYTTAKKEVSVVIEDGINEIINKTERFVSLKLESDISLASSIVDSISLRISDEQYINDIINGNAIKKAFLSTGFGFDSNGKVIENDPNWEPEDDYDPRSRGWYQEAKKNKRIFITEPYLDTEGKNFLVSISSPVADTMNNFIGAMYFDVDLSRIQKNVDDINLFEAGYVFITSNTGKVIIHSNTDELGKNVKDIYNGFRLDKGKVVLSVNGVNKWLYTSPILGGDWFIIAVIDESIAMQSINKMKYEEGHHHHHH = soluble
QYCWQHRFPTGYFSICDRYMNGTCPEGNSCKFAHGNAELHEWEERRDALKMKLNKA = soluble

Just for reference, the DeepSol protein solubility set is where these values come from.
